# System: Ramos cells with BTK WT
# protocol: Phosphor-BTK(Y223) assay, suspended cells
# Type: cell-based
# condition context: Homo sapiens, Ramos, phosphorylated BTK Y223, Ramos cells with BTK WT
Each entry below carries its reported IC50.
experimental endpoint: IC50

molecule: COc1ccc(F)cc1C(=O)NCc1ccc(-c2nc(-c3c(Cl)cccc3Cl)cc3[nH]nc(N)c23)cc1
result: 10 to 50 nM
--
molecule: COc1ccc(F)cc1C(=O)NCc1ccc(-c2ncc(-c3ccc(F)cn3)c3[nH]nc(N)c23)cc1
result: ≤ 5 nM
--
molecule: COc1ccc(F)cc1C(=O)NCc1ccc(-c2ncc(-c3cc4n(n3)CCN(C)C4)c3[nH]nc(N)c23)cc1
result: ≤ 5 nM
--
molecule: COc1ccc(F)cc1C(=O)NCc1ccc(-c2ncc(-c3cc4ccccn4n3)c3[nH]nc(N)c23)cc1
result: ≤ 5 nM
--
molecule: COc1ccc(F)cc1C(=O)NCc1ccc(-c2ncc(-c3ccc(C(F)F)cn3)c3[nH]nc(N)c23)cc1
result: ≤ 5 nM
--
molecule: COc1ccc(F)cc1C(=O)NCc1ccc(-c2ncc(-c3ccc4c(n3)nc3n4C(C)COC3)c3[nH]nc(N)c23)cc1 (centres unmarked)
result: 10 to 50 nM
--
molecule: COc1ccc(F)cc1C(=O)NCc1ccc(-c2ncc(-c3ccc4c(n3)nc3n4CCOC3)c3[nH]nc(N)c23)cc1
result: 10 to 50 nM
--
molecule: COc1ccc(F)cc1C(=O)NCc1ccc(-c2ncc(-c3ccc(C(=O)N4C[C@H](C)O[C@@H](C)C4)cn3)c3[nH]nc(N)c23)cc1
result: 5 to 10 nM
--
molecule: COc1ccc(F)cc1C(=O)NCc1ccc(-c2ncc(-c3ccc4nccn4n3)c3[nH]nc(N)c23)cc1
result: 5 to 10 nM
--
molecule: COc1ccc(F)cc1C(=O)NCc1ccc(-c2nc(C(C)C(F)(F)F)c(-c3ncccn3)c3[nH]nc(N)c23)cc1 (centres unmarked) [Example 7]
result: 5 to 10 nM
--
molecule: COc1ccc(F)cc1C(=O)NCc1ccc(-c2nc([C@H]3CC[C@H](CO)CC3)cc3[nH]nc(N)c23)cc1
result: ≤ 5 nM
--
molecule: COc1ccc(F)cc1C(=O)NCc1ccc(-c2ncc(-c3cnc4cnccn34)c3[nH]nc(N)c23)cc1
result: > 50 nM
--
molecule: COc1ccc(F)cc1C(=O)NCc1ccc(-c2nc(-c3ccc(C(=O)O)cc3)cc3[nH]nc(N)c23)cc1
result: > 50 nM
--
molecule: COc1ccc(F)cc1C(=O)NCc1ccc(-c2ncc(-c3cc4ncccn4n3)c3[nH]nc(N)c23)cc1
result: ≤ 5 nM

----------
# system under test: ITK (Homo sapiens)
# Sequence (Q08881 1-620): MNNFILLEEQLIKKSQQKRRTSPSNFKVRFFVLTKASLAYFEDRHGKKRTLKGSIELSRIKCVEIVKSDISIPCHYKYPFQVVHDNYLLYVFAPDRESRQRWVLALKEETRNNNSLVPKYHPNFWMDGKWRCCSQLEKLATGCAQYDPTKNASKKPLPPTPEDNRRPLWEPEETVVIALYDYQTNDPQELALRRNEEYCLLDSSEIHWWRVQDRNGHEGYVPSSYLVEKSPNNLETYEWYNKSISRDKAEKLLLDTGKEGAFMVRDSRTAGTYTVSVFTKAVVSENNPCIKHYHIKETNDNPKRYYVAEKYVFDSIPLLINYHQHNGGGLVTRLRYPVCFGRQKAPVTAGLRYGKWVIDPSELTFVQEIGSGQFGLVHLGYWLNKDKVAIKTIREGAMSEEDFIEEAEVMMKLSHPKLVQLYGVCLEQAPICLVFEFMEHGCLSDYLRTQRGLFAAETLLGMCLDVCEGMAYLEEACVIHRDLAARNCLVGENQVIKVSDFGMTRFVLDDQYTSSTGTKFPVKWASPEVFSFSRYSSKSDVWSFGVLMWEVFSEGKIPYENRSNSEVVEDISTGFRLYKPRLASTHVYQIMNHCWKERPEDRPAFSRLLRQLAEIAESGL
pIC50: −log10 of the molar value.
Each entry below carries its reported pIC50.

compound: COc1ccc(F)cc1C(=O)NCc1ccc(-c2ncc(-c3ccc(S(C)(=O)=O)cn3)c3[nH]nc(N)c23)cc1
pIC50: 6.30 to 7.30
//
compound: COc1ccc(F)cc1C(=O)NCc1ccc(-c2nc(C(C)C(F)(F)F)c(-c3ncccn3)c3[nH]nc(N)c23)cc1 (stereo not shown)
pIC50: < 6.30
//
compound: COc1ccc(F)cc1C(=O)NCc1ccc(-c2nc(C(C)C(F)(F)F)c(-c3ccn(C)n3)c3[nH]nc(N)c23)cc1 (single isomer, unassigned) [Example 6-2]
pIC50: < 6.30
//
compound: COc1ccc(F)cc1C(=O)NCc1ccc(-c2ncc(-c3cnn(C)c3)c3[nH]nc(N)c23)cc1
pIC50: < 6.30
//
compound: COc1ccc(F)cc1C(=O)NCc1ccc(-c2ncc(-c3cc4cnccn4n3)c3[nH]nc(N)c23)cc1
pIC50: 6.30 to 7.30
//
compound: COc1ccc(F)cc1C(=O)NCc1ccc(-c2nc(C(C)C(F)(F)F)c(-c3ccn(C)n3)c3[nH]nc(N)c23)cc1 (stereo not shown) [Example 6]
pIC50: < 6.30
//
compound: CCN1CCn2nc(-c3cnc(-c4ccc(CNC(=O)c5cc(F)ccc5OC)cc4)c4c(N)n[nH]c34)cc2C1
pIC50: 6.30 to 7.30
